# ASSAY_SYSTEM: T1, biotinylated B7-H3 (B7-H3b), immune checkpoint protein
# T1 construct: also called biotin immobilized B7-H3; streptavidin immobilized B7-H3
# T1 sequence (Q5ZPR3 whole entry, species assumed, looked up): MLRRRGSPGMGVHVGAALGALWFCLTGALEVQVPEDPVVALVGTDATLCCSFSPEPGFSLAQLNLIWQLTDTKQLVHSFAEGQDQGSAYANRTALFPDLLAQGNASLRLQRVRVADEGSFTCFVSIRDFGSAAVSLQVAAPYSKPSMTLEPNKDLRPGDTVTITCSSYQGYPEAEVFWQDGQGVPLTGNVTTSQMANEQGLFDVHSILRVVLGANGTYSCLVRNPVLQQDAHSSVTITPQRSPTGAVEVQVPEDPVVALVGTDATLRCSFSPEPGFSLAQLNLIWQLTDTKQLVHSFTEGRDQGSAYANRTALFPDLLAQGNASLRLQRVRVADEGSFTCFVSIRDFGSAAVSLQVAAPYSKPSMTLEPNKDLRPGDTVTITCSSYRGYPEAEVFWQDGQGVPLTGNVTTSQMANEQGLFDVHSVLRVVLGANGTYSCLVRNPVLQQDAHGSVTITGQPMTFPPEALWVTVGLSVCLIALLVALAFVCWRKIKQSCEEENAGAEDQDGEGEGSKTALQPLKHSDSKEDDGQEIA
# METHOD: JP5 alanine mutant library in mRNA display: background screen on beads, then selection on biotinylated B7-H3; NGS, enrichment in the selection over the input library
# From the text: FIGS. 17A-17B. JP5 alanine mutant library design and screen. (FIG. 17A) Each library member with the parent JP5 sequence on the top. JP5 was mutated at each residue to an Alanine. All library members, and JP5, were screened first against background components (magnetic beads) to remove nonspecific binders and then against biotinylated B7-H3 (see FIG. 14B). […] A value of >1 indicates stronger enrichment in the selection, whereas a value<1 indicates a stronger enrichment in the input library. […]
Bridges are numbered along the chain shown (N, C = ends).
MEASURED_PROPERTY: SELECTION/INPUT

{"columns": ["BINDER", "OBSERVED_VALUE"],
 "data": [
  ["Ac-CWTIRDINATRC-NH2 (bridge 1-12; also: bracket C1-C12, bond type not given here, Member of the JP5 alanine mutant library; also called JP5 alanine mutant 8) [AM8]", 0.338],
  ["Ac-CWTIRDINGARC-NH2 (bridge 1-12; also: bracket C1-C12, bond type not given here, Member of the JP5 alanine mutant library; also called JP5 alanine mutant 9) [AM9]", 0.422],
  ["Ac-CWTIRAINGTRC-NH2 (bridge 1-12; also: bracket C1-C12, bond type not given here, Member of the JP5 alanine mutant library; also called JP5 alanine mutant 5) [AM5]", 0.411]
]}
